# melting point listing for each entry below

Reference set (3 entries):
query_smiles=COc1ncc(-c2cccc3c2S(=O)(=O)N=C3C2=C(O)[C@H](C(C)(C)C)N(Cc3ccc(F)cc3)C2=O)cn1 result="> 250 °C"
query_smiles=CC(C)[C@H]1C(O)=C(C2=NS(=O)(=O)c3ccccc32)C(=O)N1Cc1ccc(F)cc1 result="95 to 110 °C"
query_smiles=CN(C)S(=O)(=O)NCc1cccc2c1S(=O)(=O)N=C2C1=C(O)[C@H](C(C)(C)C)N(Cc2ccc(F)cc2)C1=O result="102 to 115 °C"

# context switch: different compound, same melting point
Query :: Entry "Cc1cccc(-c2cccc3c2S(=O)(=O)N=C3c2nc(Cc3ccc(F)cc3)c3ccccc3c2O)c1" needs its melting point filled in; supply it.
Result :: 228 to 230 °C

====

endpoint-label: melting point

Study these solved cases before continuing.
compound="CC(C)(C)C1C(O)=C(C2=NS(=O)(=O)c3c(Cl)cccc32)C(=O)N1Cc1ccc(F)cc1 (stereo not drawn)" result="179 to 213 °C"
compound="CN(Cc1cccc2c1S(=O)(=O)N=C2C1=C(O)C(C(C)(C)C)N(Cc2ccc(F)cc2)C1=O)S(C)(=O)=O (stereo not drawn)" result="115 to 125 °C"
compound=CC(C)(C)[C@H]1C(O)=C(C2=NS(=O)(=O)c3c(CCS(C)(=O)=O)cccc32)C(=O)N1Cc1ccc(F)cc1 result="127 to 135 °C"
compound=O=C1C(C2=NS(=O)(=O)c3ccccc32)=C(O)[C@H](C2CCCCC2)N1Cc1ccccc1 result="104 to 106 °C"
compound=CC(C)(C)[C@H]1C(O)=C(C2=NS(=O)(=O)c3ccccc32)C(=O)N1Cc1ccc(F)c(C(F)(F)F)c1 result="85 to 91 °C"
compound=CC(C)(C)[C@H]1C(O)=C(C2=NS(=O)(=O)c3c2cccc3-c2cncnc2)C(=O)N1Cc1ccc(F)cc1 result="> 250 °C"
compound=COc1cc(CN2C(=O)C(C3=NS(=O)(=O)c4ccccc43)=C(O)[C@@H]2C(C)(C)C)ccc1F result="92 to 104 °C"
compound=O=S1(=O)N=C(c2nc(Cc3ccc(F)cc3)c3ccccc3c2O)c2cccc(N3CCOCC3)c21 result="259 to 261 °C"

Query :: Given the compound CC(C)(C)C1C(O)=C(C2=NS(=O)(=O)c3c(OCC(N)=O)cccc32)C(=O)N1Cc1ccc(F)cc1 (stereo not drawn) , write its reported melting point.
Result :: > 250 °C

Query :: Retrieve melting point measured for "CC(C)(C)[C@H]1C(O)=C(C2=NS(=O)(=O)c3c2cccc3-c2cccc(=O)[nH]2)C(=O)N1Cc1ccc(F)cc1" and print it.
Result :: > 250 °C

Query :: # return recorded melting point for entry "O=S1(=O)N=C(c2nc(Cc3ccc(F)cc3)c3ccc(F)cc3c2O)c2ccccc21"
Result :: > 275 °C

Query :: State, in one line, measured melting point of "CS(=O)(=O)NCc1cccc2c1S(=O)(=O)N=C2C1=C(O)[C@H](C2CCCCC2)N(Cc2ccc(F)cc2)C1=O"
Result :: 130 to 137 °C

Query :: Return melting point for the following compound: "CN(C)C(=O)CNc1cccc2c1S(=O)(=O)N=C2C1=C(O)[C@H](C(C)(C)C)N(Cc2ccc(F)cc2)C1=O"
Result :: 185 to 190 °C

Query :: Please give the documented melting point of "CC(C)(C)[C@H]1C(O)=C(C2=NS(=O)(=O)c3ccccc32)C(=O)N1Cc1ccc(F)c(C2CC2)c1"
Result :: 71 to 85 °C

Query :: Given CC(C)(C)C1C(O)=C(C2=NS(=O)(=O)c3c(O)cccc32)C(=O)N1Cc1ccc(F)cc1 (stereo not drawn) , respond with its melting point.
Result :: > 250 °C

Query :: Check the records and state melting point for "CC(C)(C)[C@H]1C(O)=C(C2=NS(=O)(=O)c3ccccc32)C(=O)N1Cc1ccc(F)c(Br)c1"
Result :: 114 to 119 °C
